# RUN_DESCRIPTION: yeast display, Sf9 membrane polyspecificity reagent, FACS + sequencing; frameworks hold sequencing errors
OBSERVABLE: polyreactivity (PSR sort gate)

{"columns": ["SEQUENCE_CHAIN", "OBSERVABLE", "RECORDED_MEASUREMENT"],
 "data": [
  ["QVQLVESGGGLVQAGGSLRLSCAASGSIFAPYAMGWYRQAPGKERELVAAINNNGGRTYYADSVKGRFTISRDNAKNTVYLQMNSLKPEDTAVYYCAKELGYDWYYRPYGYWGQGTQVTVSS", "polyreactivity (PSR sort gate)", "low polyreactivity"],
  ["QFQLVESGGGLVQAGGSLLLSCAASGTFGVYAMGWYRQAPGKERELVAVITDSGGTNYADSVKGRFTISRDNAKNTVFLQMNSLKPEDTAVYYCNTDAGDYYGENYWGQGTQVTVSS", "polyreactivity (PSR sort gate)", "low polyreactivity"],
  ["QVQLVESGGGLVQAGGSLRLSCAASGRINAMGWYRQAPGKERELVAVITLRGGSTYYADSVKGRFTISRDNAKNTVYLQMNSLKPEDTAVYYCAAVYRWPDAKYDYWGQGTQVSVSS", "polyreactivity (PSR sort gate)", "low polyreactivity"]
]}

====

# RUN_DESCRIPTION: yeast display, Sf9 membrane polyspecificity reagent, FACS + sequencing; frameworks hold sequencing errors
OBSERVABLE: polyreactivity (PSR sort gate)

Worked examples follow.
{"columns": ["SEQUENCE_CHAIN", "polyreactivity (PSR sort gate)"],
 "data": [
  ["QVQLVESGGGLVQAGGSLRLSCAASGIIFPVYAMGWYRQAPGKERELVAAISNRAGSTYYADSVKGRFTISRDNAKNSVYLQMNSLKPEDTAVYYCAAASRRSGASSWYDYWGQGTQVTVSS", "high polyreactivity"],
  ["QLQLVESFTGLVQAGGSLRLSCAASVPTFASYAMGWSRQAPGKERELVAVITRGVRTYYADSVKGRITISRDNAMNTVYLQMNSLKPEDTAVYDCAKERYNANYDTSLYDYWGQGTQGTVSS", "low polyreactivity"],
  ["QVQLVESGGGLVQAGGSLRLSCAASGLTFKYYAMGWYRQAPGKESELVAAITSTGGRTYYADSVKGRFTISRDNAKNTVYLQMNSLKPEDTAVYYCAAYYVGSSKYDSWGQGTQVTVSS", "low polyreactivity"],
  ["QVQLVESGGGLVQAGGSLRLSCAASGSTFGINAMGWYRQAPGKERELVAVIRAGGGRTYYADSVKGRFTISRDNAKNTVYLQMNSLKPEDTAVYYCAARYYSRYVSVYASSKTGYDYWGQGTQVTVSS", "high polyreactivity"]
]}

polyreactivity (PSR sort gate) reported for this sequence QVQLVESGGGLVQAGGSLRLSCAASGSIFTTYTMGWYRQAPGKERELVAAITSSSGSTYYADSVKGRFTISRDHAKNTVYLQMNSLKPEDTAVYYCNATYSAAVDYWGQGTQVTVSS : low polyreactivity

polyreactivity (PSR sort gate) reported for this sequence QVQLVESGGGLVQAGGSLRLSCAASGSTFVPNAMGWYRQAPGKERELVADITSGGITNYADSVKGRFTISRDNAKNTVYLQMISLNPEDTGVYYCAVLYYILAPGYDYWGQGTLVTVSS : low polyreactivity

polyreactivity (PSR sort gate) reported for this sequence QVQLVESGGGLVQAGGSLRLSCAASGRIFEYYAMGWYRQAPGKERELVAAINSSGGSTYYADSVKGRFTISRDNAKNTVYLQMNSLKPEDTAVYYCAARSYASPGWRYEYWGQGTQVTVSS : low polyreactivity

polyreactivity (PSR sort gate) reported for this sequence QVQLVESGGGLVQAGGSLRLSCAASGSTFFDYAMGWYRQAPGKVRELVAVISDGGTTTYADSVKGRFTISRDNAKNTVYLQMNSLKPEDTAVYYCAAENQDGLLVILGGYGYWGQGTQVTVSS : low polyreactivity

polyreactivity (PSR sort gate) reported for this sequence QVLLQERGGGLVQAGGSLRLSCAASGTISTDIRMGWYRLAPGKEREFVASIDGCSTTYYAYSVKGRFTISRDNAKNTVYLQMNSLKPEDTAMYYCAAREATEFYLYYWGQGTQVTVSS : low polyreactivity

====

# RUN_DESCRIPTION: yeast display, Sf9 membrane polyspecificity reagent, FACS + sequencing; frameworks hold sequencing errors

{"columns": ["SEQUENCE_CHAIN", "polyreactivity (PSR sort gate)"],
 "data": [
  ["QVQLVESGGGLVQAGGSLRLSCAASGSIFKYYAMGWYRQAPGKERELVAAITSGVSTYADSVKGPFTISRDNAKNTVYLQMNSLKPEDTAVYYCAVRVTGPRGDYWGQGTQVTVSS", "low polyreactivity"],
  ["QVQLVESGGGLVQAGGSLRLSCAASGNTFNVYAMGWYRQAPGKERELVAAITLSGGSTYYADSVKGRFTISRDNAKNTVYLQMNSLKPEDTAVYYCNAEEVGTDYDYWGQGTQVTVSS", "low polyreactivity"],
  ["QVQLVESGGGLVQAGGSLRLSRAASGFTITYNAKGWSRPAPGKESELVAAITGDGGSTYYADSVKGRFTISRDNAKNTVYLQMNSLKPEDTAVYYCAAYVVWGGTDGRYDYWGQGTQVTVSS", "low polyreactivity"]
]}

====

# RUN_DESCRIPTION: yeast display, Sf9 membrane polyspecificity reagent, FACS + sequencing; frameworks hold sequencing errors
OBSERVABLE: polyreactivity (PSR sort gate)

Worked examples follow.
{"columns": ["SEQUENCE_CHAIN", "polyreactivity (PSR sort gate)"],
 "data": [
  ["QVQLVESGGGLVQAGGSLRLSRAASGRTFYFNAMGWYRQAPGKERELVAGISGDGSTNYADSVKGRFTISRDNAKNTVYLQMNSLKPEDTAVYYCAKTLGSQNYDFDYWGQGTQVTVSS", "low polyreactivity"],
  ["QVQLVESGGGLVQAGGSLRLSCAASGRTYNPYAMGWYRQAPGKERELVAVISSIGGSTYADSVTGRFTISRDNAKNTVYLQMNSLKTEDTAVFYCNRATFGQWGGDYWGQGTQVTVSS", "high polyreactivity"],
  ["QFQLVESCRGLVQAGGSLRLSCAASGFTFRANGMGWYRQAPGKERELVATITSGGTTNYADSVKGRFTISRDNAKNTVYLQMNSLKREDTAVYYCAKRFGPAYFRLYDYWGQGTQVTVSS", "low polyreactivity"],
  ["QVQLEESGGGLVQAGGSLRLSCAASGLIFARNAMGWYRQAPGKERELVAAISKRGGSTFYADSVKGRFTISRDNAKNTVYLQMKSLNPEDTAVYYCNARSSETWHGDYWGQGTQVTVSS", "high polyreactivity"],
  ["QVQLVESGGGLIQAGGSLRLSCAASGSTFANNAMGWYRPAPGKERELVAAISYNGGSTYYADSVKGRFTISRDNAKNTVYLQMNSLKPEDTAVYYCAAYHFRAPSEYDYWGQGTQVTVSS", "low polyreactivity"]
]}

polyreactivity (PSR sort gate) reported for this sequence QVQLVESGGGLVQAGGSLRLSCAASGSIFASYAMGWYRQAPGKERELVAVITRSGGSTYYADSVKGRFTISRDNAKNTVYLQMNSLKPEDTAVYYCAAQYGRTYYSRREYWGQGTQVTVSS : high polyreactivity

polyreactivity (PSR sort gate) reported for this sequence QVQLVESGGGLVQAGGSLRLSCAASGSTFVRNAMGWYRQAPGKERELVAGITFGGGSTYYADSVKGRFTISRDIAKNTVYLQMNSLKPEDTAVYYCAADLSYRGATRGDYYWGQGTQVTVSS : low polyreactivity

====

# RUN_DESCRIPTION: yeast display, Sf9 membrane polyspecificity reagent, FACS + sequencing; frameworks hold sequencing errors
OBSERVABLE: polyreactivity (PSR sort gate)

{"columns": ["SEQUENCE_CHAIN", "RECORDED_MEASUREMENT"],
 "data": [
  ["EVQLVESGVGLVQAGGSLRLSCAASASIFLSYAMGCYRQAPGKVRELVDAISRRGGSTYYADSVKGRFTISRDFAKNTVYLQMNSLKPEDTAVYYCAADLTGPYDYWGQGTQVTVSS", "high polyreactivity"],
  ["QVQLVESGGGLVQAGGSLRLSCAASGDIFDAYAMGWYRQAPGKERELVAAISRSGGSTYYADSVKGRFTISRDNAKNTVYLQMNSLKPEDTAVYYCATRFSRRYVRYDYWGHGTQVTVSS", "high polyreactivity"],
  ["QVQLVESGGGLVQAGGSLRLSCAASGSTFRFYAMGWYRQAPGKERELVAAISSGGSSTYYADSVKGRFTISRDNAKNTVYLQMNSLKPEDTAVYYCAADSYVVRWRERDYWGQGTQVTVSS", "low polyreactivity"],
  ["QVQLVESGGGLVQAGGSLRLSCAASGSTFKVYAIGWYRQAPGKERELVAGISSGGNTNYADSVKGRFTISRDNAKNTVYLQMNSLKPEDTAVYYCNTDWYLPRYVLLGYFSGTEDYWGQGTQVTVSS", "low polyreactivity"]
]}
